Assay: chemical genetic growth profiling, strain panel (AID 1159580);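 also: tested at 20 µM; growth read once vehicle control cultures reached saturation at 30 °C; 1 = growth at the plate median or of vehicle wells; lower values mean less growth of the strain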
Conditions: S. cerevisiae deletion strains, growth OD, locus YER015W, strain faa2, stronger effect = lower value
Out of some 5,500 compounds screened, about 2,000 (36%) were called active. Roughly 18% stayed inconclusive and do not appear here. Some of the results follow.
Field: normalized growth. Provide a value for each of the compounds that follow.
Write the value as a bare number.

**Q:** Requested field: normalized growth. Item: Nc1ncnc2nc[nH]c12
**A:** 0.994

**Q:** For CC(=O)c1ccc2c(c1)N(CCCN(C)C)c1ccccc1S2 then?
**A:** 0.98

**Q:** What do we get for COC(=O)C[C@H]1C(C)(C)[C@@H](OC(C)=O)[C@@H]2CC3C4CC(=O)O[C@@H](c5ccoc5)[C@]4(C)CCC3[C@@]1(C)C2=O (stereo partly drawn) ?
**A:** 1

**Q:** Here is the next compound: O=C(O)CCCN1C(=O)c2cccc3cccc(c23)C1=O
**A:** 1.01

**Q:** Next up: C[N+]1(C)C2CC[C@H]1CC(OC(=O)C(O)c1ccccc1)C2 (stereo partly drawn)
**A:** 1

**Q:** Please answer likewise for CC(=O)Oc1ccc2c(c1)CCC1C2CCC2(C)C1CC(OC(C)=O)C2OC(C)=O (stereo not drawn)
**A:** 0.985

**Q:** Subsequent entry: Cc1nccc2c1[nH]c1ccccc12
**A:** 0.991

**Q:** What would you report for Cn1nnnc1SCC1=C(C(=O)O)N2C(=O)C(NC(=O)C(OC=O)c3ccccc3)C2SC1 (stereo not drawn) ?
**A:** 1

**Q:** Can you check O=c1[nH]cnc2nc[nH]c12 next?
**A:** 1.01

**Q:** CC(=O)O[C@H]1CC2CCC3C(CC[C@@]4(C)C3C[C@H]([N+]3(C)CCCCC3)[C@@H]4OC(C)=O)[C@@]2(C)C[C@@H]1[N+]1(C)CCCCC1 (stereo partly drawn) ?
**A:** 1.01

**Q:** Queued: O=c1n(CCCN2CCN(c3cccc(Cl)c3)CC2)nc2ccccn12
**A:** 0.978

**Q:** Proceed to N#Cc1ccc2c(c1)N(CCCN1CCC(O)CC1)c1ccccc1S2
**A:** 1

**Q:** Same question for OCCN1CCN(CCCN2c3ccccc3Sc3ccc(Cl)cc32)CC1 please.
**A:** 1

**Q:** Another: c1ccc2c(c1)[nH]c1cnccc12
**A:** 0.982

**Q:** Query COc1ccc2c(c1)[nH]c1c(C)nccc12 next
**A:** 0.988

**Q:** Then what about the compound O=c1[nH]c2ccccc2n1CCCN1CCC(n2c(=O)[nH]c3cc(Cl)ccc32)CC1 ?
**A:** 0.976

**Q:** Query CCCCCN=C(N)N/N=C\c1c[nH]c2ccc(OC)cc12 next
**A:** 0.982

**Q:** What do you have for O=c1[nH]c2ccccc2n1C1CCN(CCCC(c2ccc(F)cc2)c2ccc(F)cc2)CC1 ?
**A:** 0.953

**Q:** Try COc1ccc(Cc2nccc3cc(OC)c(OC)cc23)cc1OC next.
**A:** 1

**Q:** // repeat for c1coc(CNc2ncnc3nc[nH]c23)c1 and report
**A:** 1

**Q:** Note, next up: CCOc1ccc(Cc2nccc3cc(OCC)c(OCC)cc23)cc1OCC
**A:** 0.965

**Q:** Do the same for CC(=O)OCC(=O)[C@@]1(O)CCC2C3CCC4=CC(=O)CC[C@]4(C)[C@@]3(F)[C@@H](O)C[C@@]21C (stereo partly drawn) please
**A:** 1

**Q:** Try the compound CC(=O)OC1CCC2C3CCc4cc(O)ccc4C3CCC12C (stereo not drawn)
**A:** 0.981
